Provenance of the data: patent US20260151379A1

# test-method-notes: Solubility tests in water, SGF, FaSSIF, FeSSIF at 37° C. (Example 5)
# Format: physicochemical
# settings: FeSSIF, 37 °C, fessif, thermodynamic from solid, FeSSIF, read-out: Solubility (mg/mL) (1 h)
measurement-kind: solubility at 1 h (mg/mL)

{"columns": ["molecule", "measurement-kind", "result"],
 "data": [
  ["COc1cc(C)c2[nH]ccc2c1CN1CC[C@H](OCC2CC2)C[C@H]1c1ccc(C(=O)O)cc1 [Compound of formula I]", "solubility at 1 h", 0.37]
]}

###

# test-method-notes: Solubility tests of compound of formula I, mixture of crystal forms A and B, and crystal form C at 37° C. (Example 13)
# Format: physicochemical
# settings: thermodynamic from solid; FassIF, 37° C.; read-out: Solubility at 24 h
# Description: An appropriate amount of a test sample was weighed out and added to a vial; 3 mL of a medium (water, SGF, FaSSIF, FeSSIF, or the like) was added; the mixture was stirred at 37° C.; […]; centrifugation was performed at 12000 rpm for 10 min; the supernatant was diluted with 50% aqueous acetonitrile solution to an appropriate multiple; and the concentration of the supernatant was determined. […]
measurement-kind: solubility at 24 h (µg/mL)

{"columns": ["compound", "measurement-kind", "result"],
 "data": [
  ["COc1cc(C)c2[nH]ccc2c1CN1CC[C@H](OCC2CC2)C[C@H]1c1ccc(C(=O)O)cc1 [Compound of formula I]", "solubility at 24 h", 190]
]}

###

# test-method-notes: Solubility tests of compound of formula I, mixture of crystal forms A and B, and crystal form C at 37° C. (Example 13)
# Type: physicochemical
# settings: simulated gastric fluid, thermodynamic from solid; SGF, 37° C.; read-out: Solubility at 1 h

{"columns": ["smiles-entry", "scale-unit", "solubility at 1 h"],
 "data": [
  ["COc1cc(C)c2[nH]ccc2c1CN1CC[C@H](OCC2CC2)C[C@H]1c1ccc(C(=O)O)cc1", "µg/mL", 5510]
]}

###

# test-method-notes: Solubility tests of compound of formula I, mixture of crystal forms A and B, and crystal form C at 37° C. (Example 13)
# Format: physicochemical
# settings: thermodynamic from solid; FessIF, 37° C.; read-out: Solubility at 24 h
measurement-kind: solubility at 24 h (µg/mL)

{"columns": ["smiles-entry", "measurement-kind", "scale-unit", "result"],
 "data": [
  ["COc1cc(C)c2[nH]ccc2c1CN1CC[C@H](OCC2CC2)C[C@H]1c1ccc(C(=O)O)cc1", "solubility at 24 h", "µg/mL", 350]
]}

###

# test-method-notes: Solubility tests of compound of formula I, mixture of crystal forms A and B, and crystal form C at 37° C. (Example 13)
# Format: physicochemical
# settings: simulated gastric fluid, thermodynamic from solid; SGF, 37° C.; read-out: Solubility at 24 h
measurement-kind: solubility at 24 h (mg/mL)

{"columns": ["smiles-entry", "result"],
 "data": [
  ["COc1cc(C)c2[nH]ccc2c1CN1CC[C@H](OCC2CC2)C[C@H]1c1ccc(C(=O)O)cc1", 5.48]
]}

###

# test-method-notes: Stability tests of compound of formula I and its monohydrochloride, phosphate and maleate (Example 4)
# Type: physicochemical
# settings: 40° C./75% RH-open-2 wks
Structures can show the parent of a compound that is named as a salt.
# Total impurity % values compiled below
measurement-kind: Total impurity % (%)

{"columns": ["compound", "result"],
 "data": [
  ["COc1cc(C)c2[nH]ccc2c1CN1CC[C@H](OCC2CC2)C[C@H]1c1ccc(C(=O)O)cc1 [Compound of formula I Monohydrochloride]", 0.41],
  ["COc1cc(C)c2[nH]ccc2c1CN1CCC(OCC2CC2)CC1c1ccc(C(=O)O)cc1.O=C(O)C=CC(=O)O (stereo not shown) [Compound of formula I Maleate]", 0.36],
  ["COc1cc(C)c2[nH]ccc2c1CN1CC[C@H](OCC2CC2)C[C@H]1c1ccc(C(=O)O)cc1 [Compound of formula I]", 0.76],
  ["COc1cc(C)c2[nH]ccc2c1CN1CCC(OCC2CC2)CC1c1ccc(C(=O)O)cc1.O=P(O)(O)O (stereo not shown) [Compound of formula I Phosphate]", 0.36]
]}

###

# test-method-notes: Stability tests of compound of formula I and its monohydrochloride, phosphate and maleate (Example 4)
# Format: physicochemical
# settings: Initial
Structures can show the parent of a compound that is named as a salt.
measurement-kind: Total impurity % (%)

{"columns": ["compound", "measurement-kind", "result"],
 "data": [
  ["COc1cc(C)c2[nH]ccc2c1CN1CCC(OCC2CC2)CC1c1ccc(C(=O)O)cc1.O=P(O)(O)O (stereo not shown) [Compound of formula I Phosphate]", "Total impurity %", 0.25],
  ["COc1cc(C)c2[nH]ccc2c1CN1CC[C@H](OCC2CC2)C[C@H]1c1ccc(C(=O)O)cc1 [Compound of formula I]", "Total impurity %", 0.72],
  ["COc1cc(C)c2[nH]ccc2c1CN1CCC(OCC2CC2)CC1c1ccc(C(=O)O)cc1.O=C(O)C=CC(=O)O (stereo not shown) [Compound of formula I Maleate]", "Total impurity %", 0.20],
  ["COc1cc(C)c2[nH]ccc2c1CN1CC[C@H](OCC2CC2)C[C@H]1c1ccc(C(=O)O)cc1 [Compound of formula I Monohydrochloride]", "Total impurity %", 0.41]
]}

###

# test-method-notes: Solubility tests in water, SGF, FaSSIF, FeSSIF at 37° C. (Example 5)
# Format: physicochemical
# settings: SGF, 37 °C, simulated gastric fluid, thermodynamic from solid, SGF, read-out: Solubility (mg/mL) (24 h)
measurement-kind: solubility at 24 h (mg/mL)

{"columns": ["smiles-entry", "result"],
 "data": [
  ["COc1cc(C)c2[nH]ccc2c1CN1CC[C@H](OCC2CC2)C[C@H]1c1ccc(C(=O)O)cc1", 5.48]
]}

###

# Purity % values compiled below
# test-method-notes: Stability tests of compound of formula I and its monohydrochloride, phosphate and maleate (Example 4)
# Type: physicochemical
# settings: 60° C.-closed-2 wks

{"columns": ["molecule", "Purity % (%)"],
 "data": [
  ["COc1cc(C)c2[nH]ccc2c1CN1CCC(OCC2CC2)CC1c1ccc(C(=O)O)cc1.O=P(O)(O)O (stereo not drawn) [Compound of formula I Phosphate]", 99.62],
  ["COc1cc(C)c2[nH]ccc2c1CN1CCC(OCC2CC2)CC1c1ccc(C(=O)O)cc1.O=C(O)C=CC(=O)O (stereo not drawn) [Compound of formula I Maleate]", 99.69],
  ["COc1cc(C)c2[nH]ccc2c1CN1CC[C@H](OCC2CC2)C[C@H]1c1ccc(C(=O)O)cc1 [Compound of formula I]", 98.95]
]}
